Species: Rattus norvegicus
experiment: Open TG-GATES - Regimen: Single
Format: toxicity, organism-based, Sprague-Dawley
Parameters: regimen Single, gender Male, age 6 weeks
study conditions: in vivo, po, 0 mg/kg, 24 h, tissue Plasma, route gavage, dose level Control
observable: IP (mg/dL)

# molecule, unit of measure, recorded measurement
measured = [
    ("OCCOCCN1CCN(C(c2ccccc2)c2ccc(Cl)cc2)CC1 (stereo unspecified) [HYDROXYZINE]", "mg/dL", 7.6),
    ("CCc1oc2ccccc2c1C(=O)c1cc(Br)c(O)c(Br)c1", "mg/dL", 7.8),
    ("CC[C@H]1[C@@H]2C[C@H]3[C@@H]4N(C)c5ccccc5[C@]45C[C@@H]([C@@H]2[C@H]5O)N3[C@@H]1O", "mg/dL", 8.4),
    ("O=NN1CCOCC1", "mg/dL", 6.6),
    ("CN(C)C(=N)N=C(N)N", "mg/dL", 8.6),
    ("CCC1(c2ccccc2)C(=O)NC(=O)NC1=O", "mg/dL", 7.6),
    ("CN(C)CCC=C1c2ccccc2COc2ccccc21 [DOXEPIN]", "mg/dL", 7.2),
    ("CC(C)N(CCC(C(N)=O)(c1ccccc1)c1ccccn1)C(C)C (stereo unspecified) [DISOPYRAMIDE]", "mg/dL", 7.8),
    ("ClC(Cl)(Cl)Cl [CARBON TETRACHLORIDE]", "mg/dL", 7.4),
    ("O=NN(CCCl)C(=O)NC1CCCCC1", "mg/dL", 8.4),
    ("CC1=C(CC(=O)O)c2cc(F)ccc2/C1=C\\c1ccc([S+](C)[O-])cc1 (stereo unspecified)", "mg/dL", 7.3),
]
